Where these numbers come from: patent US20080090834A1

Reported IC50 values follow for various compounds
# system name: cloned rat PDE10A full-length enzyme (Rattus norvegicus)
# Construct: cloned rat PDE10A full-length enzyme grown in transfected Sf9 insect cells
# Sequence (Q9QYJ6 1-794): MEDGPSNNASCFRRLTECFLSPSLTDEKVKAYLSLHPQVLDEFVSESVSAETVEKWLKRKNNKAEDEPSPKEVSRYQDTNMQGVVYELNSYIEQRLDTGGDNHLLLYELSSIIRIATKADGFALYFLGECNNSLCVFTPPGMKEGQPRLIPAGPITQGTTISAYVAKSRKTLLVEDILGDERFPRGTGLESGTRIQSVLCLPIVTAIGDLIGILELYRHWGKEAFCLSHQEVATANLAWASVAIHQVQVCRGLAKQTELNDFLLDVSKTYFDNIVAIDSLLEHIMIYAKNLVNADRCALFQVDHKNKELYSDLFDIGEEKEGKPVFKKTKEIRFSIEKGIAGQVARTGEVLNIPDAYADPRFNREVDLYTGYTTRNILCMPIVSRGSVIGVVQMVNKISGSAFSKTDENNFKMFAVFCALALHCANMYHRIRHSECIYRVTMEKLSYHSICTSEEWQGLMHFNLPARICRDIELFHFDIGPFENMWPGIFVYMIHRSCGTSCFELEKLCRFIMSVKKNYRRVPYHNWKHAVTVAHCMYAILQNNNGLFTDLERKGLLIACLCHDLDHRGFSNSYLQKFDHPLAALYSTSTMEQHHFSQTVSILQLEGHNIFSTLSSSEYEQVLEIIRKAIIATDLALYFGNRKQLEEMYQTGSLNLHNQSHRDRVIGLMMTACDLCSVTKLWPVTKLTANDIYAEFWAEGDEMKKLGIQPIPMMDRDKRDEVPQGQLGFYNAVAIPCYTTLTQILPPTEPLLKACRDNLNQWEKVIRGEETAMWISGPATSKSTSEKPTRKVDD
# measurement description: PDE10 enzyme inhibition, [3H]cAMP scintillation proximity assay
# experimental parameters: rat PDE10A from Sf9 cells, 20 nM [3H]cAMP, SPA beads, 20 minute incubation at room temperature
Structures can show the parent of a compound that is named as a salt.

Record excerpt, results attached:
> print(dat)
                                   compound  test.readout  value.measured
1  CN(C)Cc1cn(-c2ccc(-c3nc(-c4ccccn4)cn3-c3cccnc3)cc2)c2ncccc12 [Example 18, TFA salt]          IC50         24.3 nM
2  CNCCc1ccc(-n2cc(-c3nccs3)nc2-c2ccc(-n3ccc4cccnc43)cc2)cc1          IC50         6.63 nM
3  COc1ccc(-c2[nH]c(-c3cccs3)nc2-c2ccc(-n3cnc4ccccc43)cc2)cc1          IC50         9.33 nM

# input for lookup
Ask: Query (compound): `COc1ccc(-c2[nH]c(-c3cccs3)nc2-c2ccc(-n3ccc4cc(OC)ccc43)cc2)cc1` ; field requested: IC50
Result: 15.8 nM

---

Reported IC50 values follow for various molecules
# system name: cloned rat PDE10A full-length enzyme (Rattus norvegicus)
# Construct: cloned rat PDE10A full-length enzyme grown in transfected Sf9 insect cells
# measurement description: PDE10 enzyme inhibition, [3H]cAMP scintillation proximity assay
# experimental parameters: rat PDE10A from Sf9 cells, 20 nM [3H]cAMP, SPA beads, 20 minute incubation at room temperature
Reply with just the number (in nM).

Record excerpt, results attached:
> print(dat)
                            smiles.notation  value.measured
1  c1ccc(-c2cn(-c3cccnc3)c(-c3ccc(-n4ccc5cccnc54)cc3)n2)nc1            6.84
2  Cc1ccc(-n2cc(-c3nccs3)nc2-c2ccc(-n3ccc4cccnc43)cc2)cn1            1.48
3  Cc1ccc(-n2cc(-c3cccc[n+]3[O-])nc2-c2ccc(-n3ccc4cccnc43)cc2)c[n+]1[O-]            16.4

# input for lookup
Ask: Query (molecule): `COc1ccc(-n2cc(-c3nccs3)nc2-c2ccc(-n3ccc4cccnc43)cc2)cn1` ; field requested: IC50
Result: 0.383

---

# system name: cloned rat PDE10A full-length enzyme (Rattus norvegicus, UniProt Q9QYJ6)
# Construct: cloned rat PDE10A full-length enzyme grown in transfected Sf9 insect cells
# measurement description: PDE10 enzyme inhibition, [3H]cAMP scintillation proximity assay
# experimental parameters: rat PDE10A from Sf9 cells, 20 nM [3H]cAMP, SPA beads, 20 minute incubation at room temperature
Where a name gives a salt, the structure may show the parent alone.
test readout: IC50 (nM)
Reply with just the number (in nM).

Record excerpt, results attached:
> print(dat)
                                   molecule  value.measured
1  CNCc1ccc(-n2cc(-c3nccs3)nc2-c2ccc(-n3ccc4cccnc43)cc2)cc1 [Example 33, Hydrochloride]            14.1
2  Cc1ccc(-n2cc(-c3ccccn3)nc2-c2ccc(-n3ccc4cnccc43)cc2)cn1 [Example 54]            5.82
3  Cc1ccc(-n2cc(-c3ccccn3)nc2-c2ccc(-n3ccc4cccnc43)cc2)cn1 [Example 6]            3.21
4  CCOc1nc2cccnc2n1-c1ccc(-c2nc(-c3cscn3)cn2-c2ccc(C)nc2)cc1 [Example 100]            1.31
5  c1ccc(-c2cn(-c3cccnc3)c(-c3ccc(-n4ccc5ccccc54)cc3)n2)nc1 [Example 36]             281
6  c1ccc(-c2cc(-c3cccnc3)nn2-c2ccc(-n3ccc4cccnc43)cc2)nc1 [Example 122, TFA salt]            21.1

Ask: Query (molecule): N#Cc1cccc2c1ccn2-c1ccc(-c2nc(-c3ccccn3)cn2-c2cccnc2)cc1 [Example 40, bis-TFA salt] ; field requested: IC50
Result: 65.4

Ask: Query (molecule): c1ccc(-n2nc(-c3ccc(-n4ccc5cccnc54)cc3)c(-c3cccnc3)n2)nc1 [Example 119] ; field requested: IC50
Result: 134

---

Reported pIC50 values follow for various compounds
# system name: cloned rat PDE10A full-length enzyme (Rattus norvegicus)
# Construct: cloned rat PDE10A full-length enzyme grown in transfected Sf9 insect cells
# measurement description: PDE10 enzyme inhibition, [3H]cAMP scintillation proximity assay
# experimental parameters: rat PDE10A from Sf9 cells, 20 nM [3H]cAMP, SPA beads, 20 minute incubation at room temperature
Please note pIC50 is a logarithmic value: minus log10 of concentration in mol/L. Answer with that number alone.

Record excerpt, results attached:
> print(dat)
                                   compound  value.measured
1  c1csc(-c2nc(-c3ccc(-n4ccc5cccnc54)cc3)c(-c3cnccn3)[nH]2)c1            8.04
2  Cc1ccc(-n2cc(-c3nccs3)nc2-c2ccc(-n3c(=O)[nH]c4cccnc43)cc2)cn1            9.13
3  Cc1ccc(-n2cc(-c3ccccn3)nc2-c2ccc(-n3cnc4cccnc43)cc2)cn1 (single isomer, unassigned)            8.26

# input for lookup
Ask: Query (compound): `Cc1ccc(-n2cc(-c3ccccn3)nc2-c2ccc(-n3c(C(F)(F)F)nc4cccnc43)cc2)cn1` ; field requested: pIC50
Result: 8.97

---

# system name: cloned rat PDE10A full-length enzyme (Rattus norvegicus, UniProt Q9QYJ6)
# Construct: cloned rat PDE10A full-length enzyme grown in transfected Sf9 insect cells
# Sequence (Q9QYJ6 1-794): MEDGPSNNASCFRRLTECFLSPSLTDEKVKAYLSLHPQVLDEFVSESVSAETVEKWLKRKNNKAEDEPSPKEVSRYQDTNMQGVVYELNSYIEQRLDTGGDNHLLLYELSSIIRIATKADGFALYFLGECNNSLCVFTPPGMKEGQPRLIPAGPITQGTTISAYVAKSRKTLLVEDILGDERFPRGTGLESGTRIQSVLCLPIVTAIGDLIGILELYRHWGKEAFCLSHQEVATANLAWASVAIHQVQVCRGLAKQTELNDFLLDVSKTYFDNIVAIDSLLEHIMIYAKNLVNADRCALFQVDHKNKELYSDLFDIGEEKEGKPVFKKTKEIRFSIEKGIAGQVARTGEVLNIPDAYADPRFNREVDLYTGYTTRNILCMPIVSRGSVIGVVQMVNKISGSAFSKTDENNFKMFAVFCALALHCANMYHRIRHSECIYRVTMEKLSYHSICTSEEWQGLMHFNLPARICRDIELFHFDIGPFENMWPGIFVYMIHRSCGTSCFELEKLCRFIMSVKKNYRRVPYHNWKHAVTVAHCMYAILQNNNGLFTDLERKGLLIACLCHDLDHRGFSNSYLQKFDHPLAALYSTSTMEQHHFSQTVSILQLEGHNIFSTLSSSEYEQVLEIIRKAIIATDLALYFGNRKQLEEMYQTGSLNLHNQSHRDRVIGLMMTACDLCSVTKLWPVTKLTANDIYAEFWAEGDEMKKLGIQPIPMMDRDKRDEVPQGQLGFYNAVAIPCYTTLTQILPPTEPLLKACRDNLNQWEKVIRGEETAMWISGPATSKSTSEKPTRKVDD
# measurement description: PDE10 enzyme inhibition, [3H]cAMP scintillation proximity assay
# experimental parameters: rat PDE10A from Sf9 cells, 20 nM [3H]cAMP, SPA beads, 20 minute incubation at room temperature
Where a name gives a salt, the structure may show the parent alone.
test readout: pIC50
Please note pIC50 is a logarithmic value: minus log10 of concentration in mol/L. Answer with that number alone.

> print(dat)
                                   molecule                               system.name  value.measured
1  c1cnc2c(c1)ccn2-c1ccc(-c2nc(-c3nccs3)cn2-c2ccc(N3CCOCC3)nc2)cc1 [Example 34]  cloned rat PDE10A full-length enzyme (Rattus norvegicus, UniProt Q9QYJ6)            9.36
2  c1ccc(-c2cn(-c3cccnc3)c(-c3ccc(-c4nccc5cccnc45)cc3)n2)nc1 [Example 78]  cloned rat PDE10A full-length enzyme (Rattus norvegicus, UniProt Q9QYJ6)            8.49
3  c1ccc(-c2cn(-c3cccnc3)c(-c3ccc(-n4nnc5cccnc54)cc3)n2)nc1 [Example 51, bis-TFA salt]  cloned rat PDE10A full-length enzyme (Rattus norvegicus, UniProt Q9QYJ6)            7.94
4  Cc1ccc(-n2cc(-c3ccc(F)s3)nc2-c2ccc(-n3ccc4cccnc43)cc2)cn1 [Example 64]  cloned rat PDE10A full-length enzyme (Rattus norvegicus, UniProt Q9QYJ6)            8.18
5  c1cnc2c(c1)ccn2-c1ccc(-c2nc(-c3nccs3)cn2-c2nccs2)cc1 [Example 3]  cloned rat PDE10A full-length enzyme (Rattus norvegicus, UniProt Q9QYJ6)            5.79
6  Clc1ccc(-c2ccc(-c3nc(-c4ccccn4)cn3-c3cncnc3)cc2)cc1Cl [Example 70]  cloned rat PDE10A full-length enzyme (Rattus norvegicus, UniProt Q9QYJ6)            6.67

Ask: Query (molecule): Cc1ccc(-n2cc(-c3ccccn3)nc2-c2ccc(-n3c(C)nc4cccnc43)cc2)cn1 [Example 57] ; field requested: pIC50
Result: 8.72

Ask: Query (molecule): c1ccc(-n2cc(-c3cccnc3)c(-c3ccc(-n4ccc5cccnc54)cc3)n2)nc1 [Example 120] ; field requested: pIC50
Result: 7.37
